EXPERIMENTAL_SYSTEM: human DGAT1 enzyme (Homo sapiens, UniProt O75907)
Construct: made in house; host or cells: Sf9 insect cells (microsomes)
Sequence (O75907 1-488): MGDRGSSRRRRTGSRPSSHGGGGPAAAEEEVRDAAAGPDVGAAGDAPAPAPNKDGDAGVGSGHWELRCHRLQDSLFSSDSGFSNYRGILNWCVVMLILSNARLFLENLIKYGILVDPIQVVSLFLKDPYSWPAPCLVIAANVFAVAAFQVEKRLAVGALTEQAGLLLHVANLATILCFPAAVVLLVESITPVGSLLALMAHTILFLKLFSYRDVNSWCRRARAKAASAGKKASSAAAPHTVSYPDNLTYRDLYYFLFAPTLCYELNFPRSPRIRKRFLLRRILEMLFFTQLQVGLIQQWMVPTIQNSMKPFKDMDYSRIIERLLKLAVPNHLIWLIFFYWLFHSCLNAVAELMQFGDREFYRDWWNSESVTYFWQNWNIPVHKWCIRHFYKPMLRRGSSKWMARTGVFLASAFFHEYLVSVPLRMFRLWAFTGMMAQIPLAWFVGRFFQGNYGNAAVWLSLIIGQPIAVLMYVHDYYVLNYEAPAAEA
PROTOCOL_SUMMARY: in vitro DGAT1 inhibition assay (microsomes, [14C]-palmitoyl-CoA, scintillation proximity)
Type: biochemical
TEST_CONTEXT: human DGAT1 expressed in Sf9 insect cell microsomes; 2 hours at room temperature; read-out: hDGAT IC50
pIC50: −log10 of the molar value.
compounds and their reported pIC50

COMPOUND: CC1CCCN(c2nc(C(F)(F)F)c(C(=O)Nc3ccc(N[C@H]4CCN(C(=O)c5ccccc5F)C4)nc3)o2)C1 (stereo partly shown) [Compound 260]
MEASUREMENT_TYPE: pIC50
VALUE_REPORTED: 6.30 to 7.00
--
COMPOUND: O=C(Nc1ccc(N2CCN(C(=O)Nc3ccccc3F)CC2)nc1)c1oc(N2CCc3ccccc3C2)nc1C(F)(F)F [Compound 335]
MEASUREMENT_TYPE: pIC50
VALUE_REPORTED: 7.00 to 7.96
--
COMPOUND: O=C(Nc1ccc(N2CCN(C(=O)Nc3ccccc3F)CC2)nc1)c1oc(N2CCC(c3cccc(F)c3)C2)nc1C(F)(F)F (stereo not shown) [Compound 279]
MEASUREMENT_TYPE: pIC50
VALUE_REPORTED: 7.00 to 7.96
--
COMPOUND: Cc1ccccc1NC(=O)c1ccc(-c2ccc(NC(=O)c3oc(N4CCCC(C)C4)nc3C(F)(F)F)cc2)cn1 (stereo not shown) [Compound 232]
MEASUREMENT_TYPE: pIC50
VALUE_REPORTED: 7.00 to 7.96

Notebook: O=C(O)C[C@H]1CC[C@H](c2ccc(NC(=O)c3oc(N4CCC(c5ccccc5)CC4)nc3C(F)(F)F)cc2)CC1 [Compound 216] , pIC50 read as 6.30 to 7.00

Notebook: O=C(Nc1ccc(N2CCN(C(=O)Nc3ccccc3F)CC2)nc1)c1oc(N2CCC(c3ccc(Cl)cc3)CC2)nc1C(F)(F)F [Compound 273] , pIC50 read as 7.00 to 7.96

Notebook: O=C(Nc1ccc(N2CCN(C(=O)Nc3ccccc3F)CC2)nc1)c1oc(N2CCN(c3ccccc3F)CC2)nc1C(F)(F)F [Compound 336] , pIC50 read as 6.30 to 7.00

The reported measurements were obtained from patent US20110224136A1.
